All values here come from paper PMC12655252.

measured_target: HsHaspin-kd (Homo sapiens)
Construct: kinase domain, amino acids 470–798 cloned in pGEX-6P-3; made in house; host or cells: bacteria
experiment_description: ADP-Glo in vitro kinase inhibition assay, Haspin
Format: biochemical
condition_info: 10 μM compound, 10 μM ATP, duplicate; read-out: Haspin % residual activity
I'd be grateful if you could share measured remaining activity at 10 µM for these entries.
Your answer should be a number followed by the unit of measure.

[ask] Quick one: remaining activity at 10 µM for "c1c[nH]c(-c2c[nH]c3cc4cnccc4cc23)c1" ?
[reply] 0%

[ask] Quick one: remaining activity at 10 µM for "CC(C)(C)OC(=O)/C=C/c1c[nH]c2cc3cnccc3cc12" ?
[reply] 12%

[ask] Quick one: remaining activity at 10 µM for "Clc1cc(-c2c[nH]c3cc4cnccc4cc23)ccn1" ?
[reply] 8%

[ask] Quick one: remaining activity at 10 µM for "c1cc2cc3c(-c4cn[nH]c4)c[nH]c3cc2cn1" ?
[reply] 0%

[ask] Quick one: remaining activity at 10 µM for "COC(=O)CCc1c[nH]c2cc3cnccc3cc12" ?
[reply] 10%

[ask] Quick one: remaining activity at 10 µM for "COC(=O)/C=C/c1c[nH]c2cc3cnccc3cc12" ?
[reply] 6%

[ask] Quick one: remaining activity at 10 µM for "c1cc2cc3c(-c4cc[nH]n4)c[nH]c3cc2cn1" ?
[reply] 0%

[ask] Quick one: remaining activity at 10 µM for "Nc1ccc(-c2c[nH]c3cc4cnccc4cc23)cn1" ?
[reply] 1%

[ask] Quick one: remaining activity at 10 µM for "CC(C)(C)OC(=O)CCc1c[nH]c2cc3cnccc3cc12" ?
[reply] 52%

###

measured_target: HsCDK9/CyclinT (Homo sapiens, UniProt P50750)
Construct: made in house; host or cells: Sf9 insect cells (baculovirus)
Sequence (P50750 whole entry): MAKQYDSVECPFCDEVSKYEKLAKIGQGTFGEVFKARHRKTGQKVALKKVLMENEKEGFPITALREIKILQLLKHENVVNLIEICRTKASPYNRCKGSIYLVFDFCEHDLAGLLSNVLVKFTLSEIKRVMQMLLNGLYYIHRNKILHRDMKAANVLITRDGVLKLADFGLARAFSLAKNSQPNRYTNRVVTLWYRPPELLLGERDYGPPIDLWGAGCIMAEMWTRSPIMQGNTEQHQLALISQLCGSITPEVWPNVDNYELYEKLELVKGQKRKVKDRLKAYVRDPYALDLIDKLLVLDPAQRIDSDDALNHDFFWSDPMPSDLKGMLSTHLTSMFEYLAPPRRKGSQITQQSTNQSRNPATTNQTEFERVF
Sequence (O60563 whole entry partner): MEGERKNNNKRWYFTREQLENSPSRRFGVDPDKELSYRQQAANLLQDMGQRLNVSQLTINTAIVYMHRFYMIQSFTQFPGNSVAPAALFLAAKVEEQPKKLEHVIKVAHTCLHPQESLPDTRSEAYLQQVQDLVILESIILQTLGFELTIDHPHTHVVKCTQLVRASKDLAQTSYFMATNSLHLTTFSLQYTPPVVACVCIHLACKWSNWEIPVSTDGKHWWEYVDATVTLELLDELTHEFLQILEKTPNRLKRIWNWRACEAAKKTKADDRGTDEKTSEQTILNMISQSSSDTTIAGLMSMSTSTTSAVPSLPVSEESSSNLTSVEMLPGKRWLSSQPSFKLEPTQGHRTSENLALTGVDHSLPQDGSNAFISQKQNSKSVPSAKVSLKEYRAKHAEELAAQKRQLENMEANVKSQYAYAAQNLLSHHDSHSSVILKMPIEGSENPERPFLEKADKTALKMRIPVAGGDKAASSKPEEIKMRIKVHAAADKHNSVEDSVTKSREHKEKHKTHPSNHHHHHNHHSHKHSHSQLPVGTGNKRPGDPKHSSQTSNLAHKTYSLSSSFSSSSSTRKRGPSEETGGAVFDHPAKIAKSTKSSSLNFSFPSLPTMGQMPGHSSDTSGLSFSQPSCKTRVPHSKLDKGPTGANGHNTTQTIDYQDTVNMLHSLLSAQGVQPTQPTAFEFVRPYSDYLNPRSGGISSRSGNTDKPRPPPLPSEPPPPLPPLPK
experiment_description: ADP-Glo in vitro kinase inhibition assay, CDK9/CyclinT
Type: biochemical
condition_info: 10 μM compound, 10 μM ATP; read-out: CDK9 % residual activity
Procedure: We previouly reported that substitution at the 3-position with halogen atoms or pyridinyl or formyl groups was compatible with high potency toward Haspin kinase. […] The percentage of residual kinase activity was evaluated at 10 μM and 1 μM compound concentrations. […]
I'd be grateful if you could share measured remaining activity at 10 µM for these entries.
Reply numerically in %, unit not repeated.

[ask] Quick one: remaining activity at 10 µM for c1c[nH]c(-c2c[nH]c3cc4cnccc4cc23)c1 [Compound 17] ?
[reply] 39

[ask] Quick one: remaining activity at 10 µM for CC(C)(C)OC(=O)CCc1c[nH]c2cc3cnccc3cc12 [Compound 11] ?
[reply] 86

[ask] Quick one: remaining activity at 10 µM for CC(C)(C)OC(=O)/C=C/c1c[nH]c2cc3cnccc3cc12 [Compound 9] ?
[reply] 32

[ask] Quick one: remaining activity at 10 µM for COC(=O)/C=C/c1c[nH]c2cc3cnccc3cc12 [Compound 8] ?
[reply] 51

[ask] Quick one: remaining activity at 10 µM for Clc1cc(-c2c[nH]c3cc4cnccc4cc23)ccn1 [Compound 2] ?
[reply] 56

[ask] Quick one: remaining activity at 10 µM for Nc1ccc(-c2c[nH]c3cc4cnccc4cc23)cn1 [Compound 3] ?
[reply] 44

[ask] Quick one: remaining activity at 10 µM for COC(=O)CCc1c[nH]c2cc3cnccc3cc12 [Compound 10] ?
[reply] 72

###

I'd be grateful if you could share measured remaining activity at 1 µM for these entries.
measured_target: HsCDK9/CyclinT (Homo sapiens, UniProt P50750)
Construct: made in house; host or cells: Sf9 insect cells (baculovirus)
experiment_description: ADP-Glo in vitro kinase inhibition assay, CDK9/CyclinT
Assay type: biochemical
condition_info: 1 μM compound, 10 μM ATP; read-out: CDK9 % residual activity
Reply numerically in %, unit not repeated.

[ask] Quick one: remaining activity at 1 µM for COC(=O)/C=C/c1c[nH]c2cc3cnccc3cc12 [Compound 8] ?
[reply] 79

[ask] Quick one: remaining activity at 1 µM for CC(C)(C)OC(=O)/C=C/c1c[nH]c2cc3cnccc3cc12 [Compound 9] ?
[reply] 79

[ask] Quick one: remaining activity at 1 µM for CC(C)(C)OC(=O)CCc1c[nH]c2cc3cnccc3cc12 [Compound 11] ?
[reply] 100

[ask] Quick one: remaining activity at 1 µM for COC(=O)CCc1c[nH]c2cc3cnccc3cc12 [Compound 10] ?
[reply] 90

[ask] Quick one: remaining activity at 1 µM for Clc1cc(-c2c[nH]c3cc4cnccc4cc23)ccn1 [Compound 2] ?
[reply] 81

[ask] Quick one: remaining activity at 1 µM for c1c[nH]c(-c2c[nH]c3cc4cnccc4cc23)c1 [Compound 17] ?
[reply] 76

[ask] Quick one: remaining activity at 1 µM for Nc1ccc(-c2c[nH]c3cc4cnccc4cc23)cn1 [Compound 3] ?
[reply] 83

###

measured_target: HsCLK1 (Homo sapiens, UniProt P49759)
Sequence (P49759 whole entry): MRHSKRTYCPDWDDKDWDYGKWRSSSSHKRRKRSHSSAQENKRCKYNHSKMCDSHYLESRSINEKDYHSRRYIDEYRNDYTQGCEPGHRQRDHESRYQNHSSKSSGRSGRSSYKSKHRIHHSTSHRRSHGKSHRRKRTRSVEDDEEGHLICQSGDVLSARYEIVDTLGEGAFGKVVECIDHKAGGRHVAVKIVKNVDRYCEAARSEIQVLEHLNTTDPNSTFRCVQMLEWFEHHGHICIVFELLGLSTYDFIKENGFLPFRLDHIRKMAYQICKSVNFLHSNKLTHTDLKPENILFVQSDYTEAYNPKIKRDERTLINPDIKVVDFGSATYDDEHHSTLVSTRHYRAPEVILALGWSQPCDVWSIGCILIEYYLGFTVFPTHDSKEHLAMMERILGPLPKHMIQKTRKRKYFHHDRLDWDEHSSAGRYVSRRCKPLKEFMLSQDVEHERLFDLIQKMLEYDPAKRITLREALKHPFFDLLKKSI
parameter_measured: IC50 (nM)
Reply numerically in nM, unit not repeated.

[ask] Quick one: IC50 for "c1cc2cc3c(-c4cc[nH]n4)c[nH]c3cc2cn1" ?
[reply] 503

###

measured_target: Pim-1 (Homo sapiens, UniProt P11309)
Construct: made in house; host or cells: bacteria
Sequence (P11309 whole entry): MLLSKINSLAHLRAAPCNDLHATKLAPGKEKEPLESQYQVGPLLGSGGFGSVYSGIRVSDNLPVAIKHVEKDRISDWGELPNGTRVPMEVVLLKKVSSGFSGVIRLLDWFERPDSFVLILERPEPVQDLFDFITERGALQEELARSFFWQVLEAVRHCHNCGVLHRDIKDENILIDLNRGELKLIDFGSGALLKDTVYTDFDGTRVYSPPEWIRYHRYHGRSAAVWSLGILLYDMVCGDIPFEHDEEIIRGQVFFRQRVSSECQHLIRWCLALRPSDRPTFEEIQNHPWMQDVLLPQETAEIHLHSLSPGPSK
experiment_description: ADP-Glo in vitro kinase inhibition assay, Pim-1
Format: biochemical
condition_info: 1 μM compound, 10 μM ATP; read-out: PIM1 % residual activity
parameter_measured: remaining activity at 1 µM (%)
Reply numerically in %, unit not repeated.

[ask] Quick one: remaining activity at 1 µM for CC(C)(C)OC(=O)/C=C/c1c[nH]c2cc3cnccc3cc12 [Compound 9] ?
[reply] 42

[ask] Quick one: remaining activity at 1 µM for CC(C)(C)OC(=O)CCc1c[nH]c2cc3cnccc3cc12 [Compound 11] ?
[reply] 70

[ask] Quick one: remaining activity at 1 µM for c1c[nH]c(-c2c[nH]c3cc4cnccc4cc23)c1 [Compound 17] ?
[reply] 91

[ask] Quick one: remaining activity at 1 µM for COC(=O)CCc1c[nH]c2cc3cnccc3cc12 [Compound 10] ?
[reply] 72

[ask] Quick one: remaining activity at 1 µM for Nc1ccc(-c2c[nH]c3cc4cnccc4cc23)cn1 [Compound 3] ?
[reply] 17

[ask] Quick one: remaining activity at 1 µM for COC(=O)/C=C/c1c[nH]c2cc3cnccc3cc12 [Compound 8] ?
[reply] 26

[ask] Quick one: remaining activity at 1 µM for Clc1cc(-c2c[nH]c3cc4cnccc4cc23)ccn1 [Compound 2] ?
[reply] 20

[ask] Quick one: remaining activity at 1 µM for c1cc2cc3c(-c4cn[nH]c4)c[nH]c3cc2cn1 [Compound 16] ?
[reply] 20

[ask] Quick one: remaining activity at 1 µM for c1cc2cc3c(-c4cc[nH]n4)c[nH]c3cc2cn1 [Compound 15] ?
[reply] 44

###

measured_target: HsHaspin-kd (Homo sapiens)
Sequence (Q8TF76 470-798): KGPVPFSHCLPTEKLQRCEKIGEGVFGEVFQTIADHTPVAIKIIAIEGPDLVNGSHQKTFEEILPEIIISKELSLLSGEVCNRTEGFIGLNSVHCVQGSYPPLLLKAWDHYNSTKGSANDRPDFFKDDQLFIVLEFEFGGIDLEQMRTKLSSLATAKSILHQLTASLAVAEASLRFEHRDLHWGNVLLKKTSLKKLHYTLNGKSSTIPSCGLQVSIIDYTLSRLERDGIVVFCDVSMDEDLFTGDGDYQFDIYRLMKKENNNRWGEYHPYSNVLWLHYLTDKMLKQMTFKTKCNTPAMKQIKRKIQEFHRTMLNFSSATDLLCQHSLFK
parameter_measured: IC50 (nM)
Reply numerically in nM, unit not repeated.

[ask] Quick one: IC50 for "CC(C)(C)OC(=O)/C=C/c1c[nH]c2cc3cnccc3cc12" ?
[reply] 392

[ask] Quick one: IC50 for "Nc1ccc(-c2c[nH]c3cc4cnccc4cc23)cn1" ?
[reply] 10.6

[ask] Quick one: IC50 for "c1c[nH]c(-c2c[nH]c3cc4cnccc4cc23)c1" ?
[reply] 81.3

[ask] Quick one: IC50 for "c1cc2cc3c(-c4cc[nH]n4)c[nH]c3cc2cn1" ?
[reply] 30.6

[ask] Quick one: IC50 for "COC(=O)/C=C/c1c[nH]c2cc3cnccc3cc12" ?
[reply] 15.5

###

measured_target: HsCK1ε (Homo sapiens)
Construct: made in house; host or cells: Sf9 insect cells
Sequence (P49674 whole entry): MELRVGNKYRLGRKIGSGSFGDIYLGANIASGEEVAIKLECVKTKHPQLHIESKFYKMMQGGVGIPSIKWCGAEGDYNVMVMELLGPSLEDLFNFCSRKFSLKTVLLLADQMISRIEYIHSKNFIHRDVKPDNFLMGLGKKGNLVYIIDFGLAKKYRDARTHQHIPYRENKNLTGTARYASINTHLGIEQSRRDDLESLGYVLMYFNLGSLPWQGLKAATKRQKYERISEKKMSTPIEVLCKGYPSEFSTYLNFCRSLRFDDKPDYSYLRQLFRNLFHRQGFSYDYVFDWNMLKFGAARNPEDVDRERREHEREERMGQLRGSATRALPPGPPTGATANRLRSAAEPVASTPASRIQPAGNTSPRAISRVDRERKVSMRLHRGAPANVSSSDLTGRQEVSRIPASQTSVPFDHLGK
experiment_description: ADP-Glo in vitro kinase inhibition assay, CK1ε
Assay type: biochemical
condition_info: 1 μM compound, 10 μM ATP; read-out: CK1 % residual activity
Criterion: remaining activity at 1 µM strictly under 90%. Met: 1. Not met: -1.

[ask] is_below(remaining activity at 1 µM, 90%) for "COC(=O)CCc1c[nH]c2cc3cnccc3cc12" ?
[reply] -1

[ask] is_below(remaining activity at 1 µM, 90%) for "c1cc2cc3c(-c4cc[nH]n4)c[nH]c3cc2cn1" ?
[reply] -1

[ask] is_below(remaining activity at 1 µM, 90%) for "Nc1ccc(-c2c[nH]c3cc4cnccc4cc23)cn1" ?
[reply] 1

[ask] is_below(remaining activity at 1 µM, 90%) for "c1cc2cc3c(-c4cn[nH]c4)c[nH]c3cc2cn1" ?
[reply] 1

[ask] is_below(remaining activity at 1 µM, 90%) for "CC(C)(C)OC(=O)CCc1c[nH]c2cc3cnccc3cc12" ?
[reply] -1

[ask] is_below(remaining activity at 1 µM, 90%) for "Clc1cc(-c2c[nH]c3cc4cnccc4cc23)ccn1" ?
[reply] 1
